Exercise: state measured growth inhibition for each of the molecules provided.
experiment-summary: NCI Yeast Anticancer Drug Screen. Data for the bub3 strain (AID 167)
protocol-conditions: S. cerevisiae bub3 mutant strain, at 5.0 µM (retest, dose inferred, filed as 0.5), active compounds read high
The panel holds about 79,000 compounds, 15% with a hit somewhere; the sample as a whole holds those more often.
Give bare numbers, in %.

Consider the following illustrative entries.
CC(C)C1(c2ccccc2)C(=O)c2ccccc2C1=O ... -11
N#C/C=C(\c1ccccc1)c1c[nH]c2ccccc12 ... -63
CN(C)c1nc(NNS(=O)(=O)c2ccc(N)cc2)nc(N(C)C)n1 ... -6
O=C1c2ccccc2C(=O)c2sccc21 ... -36

# evaluate next
Query :: Using known records, supply growth inhibition for COC1(OC)OC2=C(OC1(OC)OC)c1ccccc1C2=O
Result :: 4
